Literature roundup of human HIF-PHD2 (Homo sapiens) data, read-out pIC50.
As a rule, pIC50 stands for the negative log10 of the concentration, concentration in M.

// solved cases for pIC50 follow
INSERT INTO results (compound, measurement_type, recorded_measurement) VALUES
  ('O=C(O)c1cnn(-c2nc(O)c3c(cnn3CC3CCC4(CCC4)CC3)n2)c1', 'pIC50', 7.80),
  ('O=C(O)CNC(=O)C1=C(O)c2ccc(-c3ccccc3)cc2C1=O', 'pIC50', 7.94),
  ('CCC(c1ccc(Cl)c(C)c1)n1ncc2nc(-n3cc(C(=O)O)cn3)nc(O)c21 (single isomer, unassigned)', 'pIC50', 7.42);

Ask: Recall the reported pIC50 of O=C(O)c1cnn(-c2nc(O)c3c(cnn3Cc3ccc(F)c(-c4ccccc4)c3)n2)c1 when tested on human HIF-PHD2 (Homo sapiens).
Reply: 7.47

Ask: Recall the reported pIC50 of O=C(O)CNC(=O)c1c(O)c2c(n(Cc3ccc(F)cn3)c1=O)COC2 when tested on human HIF-PHD2 (Homo sapiens).
Reply: 8.18

Ask: Recall the reported pIC50 of C[C@@H](c1ccc(F)c(Cl)c1)n1ncc2nc(-n3cc(C(=O)O)cn3)nc(O)c21 when tested on human HIF-PHD2 (Homo sapiens).
Reply: 7.31

Ask: Recall the reported pIC50 of O=C(O)CNC(=O)c1c(O)c2c(n(Cc3ccc(C(F)(F)F)cc3)c1=O)CN(Cc1ccccc1)CC2 when tested on human HIF-PHD2 (Homo sapiens).
Reply: 7.49

Ask: Recall the reported pIC50 of CCc1ccc2cc(CCn3ncc4nc(-n5cc(C(=O)O)cn5)nc(O)c43)ccc2c1 when tested on human HIF-PHD2 (Homo sapiens).
Reply: 7.92

Ask: Recall the reported pIC50 of O=C(O)c1cnn(-c2nc(O)c3nn(Cc4cc(C(F)(F)F)cc(Cl)c4F)cc3n2)c1 when tested on human HIF-PHD2 (Homo sapiens).
Reply: 8.00

Ask: Recall the reported pIC50 of CC(CNC(=O)c1ncc(C(=O)NC2(c3ccc(-c4ccc(Cl)cc4)cc3)CC2)c(O)n1)C(=O)O (single isomer, unassigned) when tested on human HIF-PHD2 (Homo sapiens).
Reply: 7.89

Ask: Recall the reported pIC50 of O=C(O)c1cnn(-c2nc(O)c3c(cnn3CC3CCCCC3)n2)c1 when tested on human HIF-PHD2 (Homo sapiens).
Reply: 7.51

Ask: Recall the reported pIC50 of O=C(O)c1cnn(-c2nc(O)c3c(cnn3CCCOc3ccc4ccccc4c3)n2)c1 when tested on human HIF-PHD2 (Homo sapiens).
Reply: 7.92
